Tested On: bromodomain of BRD9 (GST-BRD9 aa 130-259) / H3 K9/14/18/23Ac(1-28) peptide (Homo sapiens)
Construct: The protein corresponding to amino acids 130-259 that contains the bromodomain of BRD9
Experimental Details: BRD9-H3 tetra-acetylated Peptide Inhibition AlphaScreen
Okay, here is how we bin by IC50: low (below 100 nM), middle (100 nM to below 500 nM), high (500 nM or more)

Bin this entry: COc1cc(-c2cn(C)c(=O)c3[nH]ccc23)ccc1CN1C[C@@H]2CC1CN2 [III-3]
low

Please answer likewise for COc1cc(-c2cc(C)c(=O)n(C)c2)cc(OC)c1CN(C)C1CN(C)C1 [Compound I-208]
middle

Please answer likewise for Cc1cc(-c2ccc(CN3CCN(C)CC3)c(N(C)C)c2)cn(C)c1=O [Compound I-204]
middle

Please answer likewise for COc1cc(-c2cc(C)c(=O)n(C)c2C)ccc1COC1CNC1 [Compound I-153]
low

Please answer likewise for Cn1cc(-c2ccc(C(N)=O)cc2)c2ccncc2c1=O [II-9]
high

Please answer likewise for COc1cc(-c2cn(C)c(=O)c(C)c2C)ccc1C1(N2CCN(C)CC2)CC1 [Compound I-111]
middle

Please answer likewise for Cc1cc(-c2ccc([C@@H](C)N)cc2)c(C)n(C)c1=O [Compound I-141]
high

Please answer likewise for COCc1c(OC)cc(-c2cn(C)c(=O)c(C)c2C)cc1OC [Compound I-107]
middle

---

Tested On: bromodomain of BRD9 (GST-BRD9 aa 130-259) / H3 K9/14/18/23Ac(1-28) peptide (Homo sapiens, UniProt Q9H8M2)
Construct: The protein corresponding to amino acids 130-259 that contains the bromodomain of BRD9
Experimental Details: BRD9-H3 tetra-acetylated Peptide Inhibition AlphaScreen
What IC50 was measured for each of the following?
# unit: nM | format: bare number

I am curious: what IC50 value has been reported for "Cn1cc(-c2ccc(C(=O)N3CCNCC3)cc2)c2cccnc2c1=O" ?
1380

Please answer likewise for "COc1cc(S(=O)(=O)N2CC(O)C2)c(OC)cc1-c1cc(C)c(=O)n(C)c1"
131

Please answer likewise for "COc1cc(-c2cn(C)c(=O)c3ccncc23)c(OC)cc1CN(C)C"
609

Please answer likewise for "CCOc1cc(-c2cc(C)c(=O)n(C)c2)ccc1CN1CCN(C)CC1"
468

Please answer likewise for "Cc1cc(-c2cn(C)c(=O)c3ccccc23)ccc1C(=O)N(C)C"
1190

Please answer likewise for "COc1cc(-c2cn(C)c(=O)c3ccc(Cn4cccn4)cc23)cc(OC)c1CN(C)C"
31

Please answer likewise for "Cc1cc(-c2ccc(CN3CCCCC3)cc2)cn(C)c1=O"
1050

Please answer likewise for "Cc1cc(-c2ccc(C(=O)C3CCNCC3)cc2)cn(C)c1=O"
361

Please answer likewise for "Cc1cc(-c2cn(C)c(=O)c3[nH]ccc23)ccc1C(=O)N1CCN(C)CC1"
340

Please answer likewise for Cc1cc(-c2ccc(C(C)N3CCCCC3)cc2)cn(C)c1=O (stereo not shown)
318

Please answer likewise for "COc1cc(-c2cc(C)c(=O)n(C)c2)cc(OC)c1CNC1CNC1"
32

Please answer likewise for "Cc1c(-c2ccc3c(c2)CCNC3)cn(C)c(=O)c1C"
744

Please answer likewise for "COc1cc(-c2cc(C)c(=O)n(C)c2)cc(C)c1CN"
268

Please answer likewise for Cc1cc(-c2ccc(C(C)N3CCOCC3)cc2)cn(C)c1=O (stereo not shown)
1080

Please answer likewise for "COc1cc(-c2cc(C)c(=O)n(C)c2)ccc1CN1CC(Cl)C1"
38

Please answer likewise for "Cc1cc(-c2cc(C)c(=O)n(C)c2)ccc1CN"
1040

Please answer likewise for "COc1cc(-c2cc(C)c(=O)n(C)c2)ccc1CN1CCN(Cc2cccc(N)c2)CC1"
71

Please answer likewise for "Cc1cc(-c2ccc(C(=O)N3CCN(C)CC3)c(OC(F)(F)F)c2)cn(C)c1=O"
1320

Please answer likewise for "COc1cc(-c2cc(C)c(=O)n(C)c2C)ccc1C1(N(C)C)CC1"
116

---

Tested On: bromodomain of BRD9 (GST fusion) / acetylated histone H4 peptide (BET Bromodomain Ligand) (Homo sapiens)
Construct: A GST fusion protein of the bromodomain of BRD9
Sequence (Q9H8M2 136-240 limits assumed): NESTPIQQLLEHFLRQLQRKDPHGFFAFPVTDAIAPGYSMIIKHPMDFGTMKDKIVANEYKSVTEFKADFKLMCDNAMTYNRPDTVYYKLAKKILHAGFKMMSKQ
Experimental Details: BRD9-H4 Tetraacetylated Peptide Inhibition AlphaScreen
pIC50: −log10 of the molar value.
Binary call on pIC50: TRUE from 7 upward, FALSE beneath that.

pIC50 >= 7 for "Cc1ccc(-c2cn(C)c(=O)c(C)n2)cc1NS(C)(=O)=O" ?
FALSE

Please answer likewise for "CCn1cc(-c2ccc(C)c(NS(C)(=O)=O)c2)c2cc[nH]c2c1=O"
FALSE

Please answer likewise for "CN1CCN(C(=O)c2ccc(-c3cc(Br)c(=O)n(C)c3)cc2)CC1"
FALSE

Please answer likewise for "Cc1cc(-c2ccc(C(=O)N3CCNCC3)cc2)cn(C)c1=O"
TRUE

Please answer likewise for "Cc1ccc(-c2cc(N)c(=O)n(C)c2)cc1NS(C)(=O)=O"
FALSE

Please answer likewise for "Cc1cc(-c2ccc(C(=O)N3CCN(C)CC3)c(F)c2)cn(C)c1=O"
FALSE

---

Tested On: bromodomain of BRD9 (GST-BRD9 aa 130-259) / H3 K9/14/18/23Ac(1-28) peptide (Homo sapiens, UniProt Q9H8M2)
Construct: The protein corresponding to amino acids 130-259 that contains the bromodomain of BRD9
Experimental Details: BRD9-H3 tetra-acetylated Peptide Inhibition AlphaScreen
What pIC50 was measured for each of the following?
// returns pIC50 (minus log10 of molar concentration), number only

I am curious: what pIC50 value has been reported for "COc1cc(S(=O)(=O)NC2CNC2)c(OC)cc1-c1cc(C)c(=O)n(C)c1C" ?
7.42

Please answer likewise for Cc1cc(-c2ccc(C(C)N3CCCC3)cc2)cn(C)c1=O (stereo not drawn)
6.86

Please answer likewise for "COc1cc(-c2cc(C)c(=O)n(C)c2)ccc1CN1CC(O)C1"
7.28

Please answer likewise for "Cc1cc(-c2ccc(S(=O)(=O)NCCN(C)C)c(OC(F)(F)F)c2)cn(C)c1=O"
6.49

Please answer likewise for "Cc1cc(-c2cn(C)c(=O)c3ccccc23)ccc1C(=O)N1CCN(C)CC1"
6.01

Please answer likewise for "COc1cc(-c2cn(C)c(=O)c3cncnc23)cc(OC)c1CN1CC(N)C1"
8.30

Please answer likewise for "COc1cc(-c2cc(C)c(=O)n(C)c2)ccc1S(=O)(=O)N1CCNCC1"
6.84

Please answer likewise for "Cc1cc(-c2cccc(NS(C)(=O)=O)c2)cn(C)c1=O"
5.91

Please answer likewise for "COc1cc(-c2cc(I)c(=O)n(C)c2)ccc1C(=O)N1CCN(C)CC1"
6.64

Please answer likewise for "COc1cc(-c2cc(C)c(=O)n(C)c2C)ccc1C1(N(C)C)CCC1"
6.79

Please answer likewise for "COc1cc(-c2cc(C)c(=O)n(C)c2C)ccc1CN1CC(OC)C1"
6.40

Please answer likewise for "Cc1cc(-c2ccc(CN3CCN(C)CC3)c(O)c2)cn(C)c1=O"
6.34

Please answer likewise for "COc1cc(-c2cc(C)c(=O)n(C)c2C)ccc1CN1CC(O)C1"
7.26

Please answer likewise for "CN1CCN(C(=O)c2ccc(-c3nn(C)c(=O)c4ccccc34)cc2)CC1"
4.79

Please answer likewise for "Cc1cc(-c2ccc(C(=O)C3CCNCC3)cc2)c(C)n(C)c1=O"
6.55

Please answer likewise for "COc1cc(-c2cn(C)c(=O)c3cccnc23)c(OC)cc1CN(C)C"
6.20

Please answer likewise for "COc1cc(-c2cn(C)c(=O)c3cnccc23)cc(OC)c1CNC1CNC1"
7.62

Please answer likewise for "COc1cc(-c2cc(C)c(=O)n(C)c2)ccc1CN1CC(OC)C1"
7.13

Please answer likewise for "COc1cc(-c2cc(C)c(=O)n(C)c2)cc(OC)c1CN1CCNCC1"
7.06

Please answer likewise for "Cc1cc(-c2cc(C)c(=O)n(C)c2)ccc1C1(N2CCN(C)CC2)CC1"
6.21

Please answer likewise for "CN1CCN(C(=O)c2ccc(-c3cn(C)c(=O)c4[nH]ccc34)cc2)CC1"
6.41

Please answer likewise for "COc1cc(-c2cc(C)c(=O)n(C)c2)ccc1CN1CC(N(C)C)C1"
6.32

Please answer likewise for "Cc1cc(-c2ccc3c(c2)CCNC3)cn(C)c1=O"
6.15

Please answer likewise for "COc1cc(-c2cn(C)c(=O)c3[nH]ccc23)ccc1CN1C[C@H]2C[C@@H]1CN2C"
7.41

Please answer likewise for "COc1cc(-c2cc(I)c(=O)n(C)c2)ccc1C(=O)N1CCNCC1"
7.19

Please answer likewise for "COc1cc(S(=O)(=O)N2CCNCC2)c(OC)cc1-c1cc(C)c(=O)n(C)c1"
6.90

Please answer likewise for "COc1cc(S(=O)(=O)N2CCN(C)CC2)c(OC)cc1-c1cc(C)c(=O)n(C)c1"
6.63

Please answer likewise for "Cc1cc(-c2cn(C)c(=O)c3ccccc23)ccc1C(N)=O"
5.50

Please answer likewise for "COc1cc(-c2cc(C)c(=O)n(C)c2)ccc1CN1C[C@H]2C[C@@H]1CN2C"
6.47

Please answer likewise for "CN1CCN(Cc2ccc(-c3cn(C)c(=O)c4ccccc34)cc2)CC1"
6.05

Please answer likewise for "COc1cc(-c2cc(C)c(=O)n(C)c2C)cc(OC)c1CN1CCN(C)CC1"
6.49

Please answer likewise for "Cc1cc(-c2ccc3c(c2)CCN(C)C3)cn(C)c1=O"
6.52

Please answer likewise for "COc1cc(-c2cc(C)c(=O)n(C)c2)cc(OC)c1CNC1CN(C)C1"
7.16

Please answer likewise for "Cc1cc(-c2cc(C)c(=O)n(C)c2)c(C)cc1CN1CCNCC1"
6.01

Please answer likewise for "Cc1cc(-c2ccc(CN3CCNCC3)c(N(C)C)c2)cn(C)c1=O"
6.80

Please answer likewise for "Cc1cc(-c2cn(C)c(=O)c(C)c2C)ccc1C1(N2CCN(C)CC2)CC1"
6.49

Measured values drawn from patent US11319318B2 for this set.
